meta.source: patent US4400510A

- PROTOCOL: potentiometric titration
- Format: physicochemical
- EXPERIMENTAL CONTEXT: 66% dimethylformamide in water, pH 4.1, first titratable group, initial pH 4.1
TEST READOUT: pKa

Q. Value lookup for pKa; key = Cc1cccc(O)c1C(=O)OC(C)c1cccc2nc3c(C(=O)O)cccc3nc12 (stereo not shown) [Antibiotic A-32256]
A. ~5.02

###

- PROTOCOL: potentiometric titration
- Format: physicochemical
- EXPERIMENTAL CONTEXT: 66% dimethylformamide in water, pH 4.1, second titratable group, initial pH 4.1
TEST READOUT: pKa

Q. pKa for Cc1cccc(O)c1C(=O)OC(C)c1cccc2nc3c(C(=O)O)cccc3nc12 (stereo not shown) [Antibiotic A-32256] ?
A. ~7.2
